FYI, the data here is from PubChem BioAssay AID2060350.

Tested on: PDC 521955-158-R6-J3 spheroids, viability;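 also: spheroids exposed to drugs for 7 days before readout; 100% = DMSO vehicle control viability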
Assay: Anticancer human tumor 521955-158-R6-J3-PDC patient-derived pancreatic carcinoma cell line growth inhibition [TAK]
Conditions: second compound 9.49 µM; first compound 0.000316 µM; active compounds read low; spheroids with HUVEC and MSC

compound | viability, T/C, %
CC(C)n1nc(-c2ccc3oc(N)nc3c2)c2c(N)ncnc21 + CC(C)NCC(C(=O)N1CCN(c2ncnc3c2C(C)CC3O)CC1)c1ccc(Cl)cc1 | 64
COC1CC2CCC(C)C(O)(O2)C(=O)C(=O)N2CCCCC2C(=O)OC(C(C)CC2CCC(OCCO)C(OC)C2)CC(=O)C(C)C=C(C)C(O)C(OC)C(=O)C(C)CC(C)C=CC=CC=C1C (centres undefined) + CC(C)NCC(C(=O)N1CCN(c2ncnc3c2C(C)CC3O)CC1)c1ccc(Cl)cc1 | 86.2
CC(C)CC(NC(=O)C(Cc1ccccc1)NC(=O)c1cnccn1)B(O)O (centres undefined) + CC(C)NCC(C(=O)N1CCN(c2ncnc3c2C(C)CC3O)CC1)c1ccc(Cl)cc1 | 97.6
CC(C)CC(NC(=O)CNC(=O)c1cc(Cl)ccc1Cl)B1OC(=O)CC(CC(=O)O)(C(=O)O)O1 (centres undefined) + CC(C)NCC(C(=O)N1CCN(c2ncnc3c2C(C)CC3O)CC1)c1ccc(Cl)cc1 | 92.7
